Measured values drawn from patent US20250092406 for this set.

TARGET: TNF-alpha (UniProt P01375)
Sequence (P01375 77-233): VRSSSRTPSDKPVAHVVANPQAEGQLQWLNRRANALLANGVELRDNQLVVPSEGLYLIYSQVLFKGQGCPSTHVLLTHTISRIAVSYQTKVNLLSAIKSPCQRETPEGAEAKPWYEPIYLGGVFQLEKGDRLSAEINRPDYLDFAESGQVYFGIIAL
TEST DESCRIPTION: BLI
PARTICULARS: SEQ 37 part DNA primer, selected region TNA 3'-2', natural bases; three replicates 109, 76, 62 nM; approximate, poor curve fit; 24 C, 2 mM CaCl2
QUANTITY: Kd (nM)

1. GTCCCCTTGGGGATACCACCGACGCTATGACTGGTATGGTGTGTGAGCTTCGAGGTCTGA [TNF Standard-2]; 82

----------
TARGET: SARS-CoV-2 spike glycoprotein subunit 1 (S1) (SARS-CoV-2)
TEST DESCRIPTION: BLI
pKd: −log10 of the molar value.
QUANTITY: pKd

1. GTCCCCTTGGGGATACCACCTTGGCGAGATCCCCTATACGTGAGCTTCCTTTTATCCTTT [S1 Trp-1]; 8.51
